Assay: Induction of apoptosis in Mcl-1 dependent […] cells treated for 48 hrs by Annexin V-FITC staining based flow cytometric analysis
Format: functional, cell-based
Conditions: Mus musculus, H22, 48 h
recorded_endpoint: IC50

Problem: Hello, please tell me recorded IC50 for this one: O=C(O)c1cc2ccccc2n1S(=O)(=O)c1ccc(OCc2cccc(Cl)c2)cc1
Solution: 9.2 µM

###

Biological target: Induced myeloid leukemia cell differentiation protein Mcl-1/Bcl-2-like protein 11 (Homo sapiens)
Sequence (Q07820 whole entry): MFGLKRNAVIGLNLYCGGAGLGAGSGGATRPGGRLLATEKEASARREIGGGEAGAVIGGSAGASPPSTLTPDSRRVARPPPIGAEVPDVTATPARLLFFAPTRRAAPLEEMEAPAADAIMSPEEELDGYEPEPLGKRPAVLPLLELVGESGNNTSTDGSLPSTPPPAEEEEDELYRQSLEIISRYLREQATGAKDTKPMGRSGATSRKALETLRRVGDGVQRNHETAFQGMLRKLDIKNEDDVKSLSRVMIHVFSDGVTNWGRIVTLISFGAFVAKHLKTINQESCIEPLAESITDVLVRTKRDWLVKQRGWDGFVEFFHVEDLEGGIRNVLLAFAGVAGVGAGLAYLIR
Sequence (O43521 whole entry, further chain): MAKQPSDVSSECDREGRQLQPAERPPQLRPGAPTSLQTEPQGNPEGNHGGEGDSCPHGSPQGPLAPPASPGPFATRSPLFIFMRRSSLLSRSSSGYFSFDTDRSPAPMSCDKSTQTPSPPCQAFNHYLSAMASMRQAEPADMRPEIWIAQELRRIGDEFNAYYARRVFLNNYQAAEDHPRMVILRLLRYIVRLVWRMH
Assay: Inhibition of Mcl-1/Bim (unknown origin) by fluorescence polarisation assay
Assay type: protein assay
recorded_endpoint: IC50 (µM)
// note: answer is a bare numeric in µM

Problem: Please indicate IC50 recorded for CC(C)Cc1cc(-c2ccc(-c3ccc(OCC(=O)O)cc3CC(C)C)cc2Cc2ccccc2)ccc1OCCC(=O)O
Solution: 4.9

###

Target: MCL1-BAK1 complex (Homo sapiens, UniProt Q07820)
Sequence (Q16611 whole entry, one chain of several, further chain): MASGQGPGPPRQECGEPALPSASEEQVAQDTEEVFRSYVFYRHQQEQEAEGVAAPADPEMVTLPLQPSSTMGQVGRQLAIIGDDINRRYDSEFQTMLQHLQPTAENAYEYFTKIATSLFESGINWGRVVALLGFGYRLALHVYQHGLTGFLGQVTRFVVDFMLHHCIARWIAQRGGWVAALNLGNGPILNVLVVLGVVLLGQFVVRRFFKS
Assay: Binding affinity to Mcl-1/Bak (unknown origin) assessed as inhibition constant by fluorescence polarization assay
Format: protein-complex assay
# YES = Ki below 8 µM (exclusive); NO = Ki at/above 8 µM

Solved cases (3 shown):
compound	group_label
CC(C)C(C(=O)O)N1C(=O)/C(=C/c2ccc(Br)cc2)SC1=S (stereo unspecified)	NO
COc1cccc(-c2ccc(/C=C3\SC(=S)N([C@@H](Cc4ccccc4)C(=O)O)C3=O)cn2)c1OC	YES
CC(C)COc1nc(Oc2ccccc2)ccc1C(=O)O	NO

Next:
Problem: # TODO verify Ki < 8 µM strictly for this compound: CC1=C[C@@H](/C=C(\C)c2ccc(C(=O)O)cc2)[C@]2(C(=O)O)C=C[C@@H](CCOC(=O)c3ccc(Oc4cccnc4)cc3)C[C@@H]2C1
Solution: YES

###

Target: Induced myeloid leukemia cell differentiation protein Mcl-1 (Homo sapiens, UniProt Q07820)
Assay: Binding affinity to Mcl-1 (unknown origin)
recorded_endpoint: Ki (µM)
Reply numerically in µM, unit not repeated.

Problem: Look up and report measured Ki for this entry: CC1=C(C2=C(C)C(=O)c3c(cc(O)c(O)c3C(C)C)C2=O)C(=O)c2cc(O)c(O)c(C(C)C)c2C1=O
Solution: 25

###

Recorded IC50 for the following molecules
Biological target: Induced myeloid leukemia cell differentiation protein Mcl-1/BH3-interacting domain death agonist (Homo sapiens)
Experiment: Inhibition of Mcl-1/Bid (unknown origin) by fluorescence polarization assay
Format: protein assay
Answer with a number only, understood to be in nM.

chemical_smiles	display_unit	reading
Cc1cc2c(C(C)C)c(O)c(O)c(C=O)c2c(O)c1-c1c(C)cc2c(C(C)C)c(O)c(O)c(C=O)c2c1O	nM	1750

Problem: # return recorded IC50 for input CC1=C(C2=C(C)C(=O)c3c(cc(O)c(O)c3C(C)C)C2=O)C(=O)c2cc(O)c(O)c(C(C)C)c2C1=O
Solution: 25

###

Target: Induced myeloid leukemia cell differentiation protein Mcl-1 (Homo sapiens, UniProt Q07820)
Test: Binding affinity to Mcl-1 (unknown origin) assessed as inhibition constant by fluorescence polarization assay
recorded_endpoint: pKi
Note on units: pKi is unitless, being -log10 of a concentration expressed in mol/L.

compound	study_target	recorded_endpoint	reading
CCOC(=O)C1=C(C)N=c2s/c(=C\c3cn(Cc4ccc(-c5ccccc5)cc4)c4ccccc34)c(=O)n2C1c1ccccc1 (stereo not drawn)	Induced myeloid leukemia cell differentiation protein Mcl-1 (Homo sapiens, UniProt Q07820)	pKi	6.70
O=C(NCCNS(=O)(=O)c1sccc1-c1ccccc1Oc1ccc(O)c(O)c1)Nc1cc(C(F)(F)F)cc(C(F)(F)F)c1	Induced myeloid leukemia cell differentiation protein Mcl-1 (Homo sapiens, UniProt Q07820)	pKi	6.53

Consider now this further compound.
Problem: Tell us which pKi value is on record for O=C(O)CSc1cc(NS(=O)(=O)c2cccc(Br)c2)c2ccccc2c1O
Solution: 6.74

###

Target: BCL2/BCL2L11 (Homo sapiens, UniProt P10415)
Sequence (P10415 whole entry): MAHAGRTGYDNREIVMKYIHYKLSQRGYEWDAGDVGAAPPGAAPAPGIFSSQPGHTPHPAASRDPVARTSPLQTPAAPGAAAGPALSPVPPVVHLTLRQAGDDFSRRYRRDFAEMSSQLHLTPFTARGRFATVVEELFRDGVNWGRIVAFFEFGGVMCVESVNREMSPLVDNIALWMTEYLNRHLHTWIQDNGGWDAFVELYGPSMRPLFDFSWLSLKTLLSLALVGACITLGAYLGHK
Sequence (O43521 whole entry, further chain): as the sequence (O43521 whole entry, further chain) above
recorded_endpoint: pIC50
pIC50 here: minus log base 10 of the concentration, concentration in moles per litre.

Problem: Look up pIC50 of O=C1CCC(N2C(=O)c3cccc4c(Sc5ccc(Br)cc5)ccc(c34)C2=O)C(=O)N1 (stereo unspecified) and report it.
Solution: 6.37

###

Target: Bcl-2-like protein 1 (Homo sapiens)
Sequence (Q07817 whole entry): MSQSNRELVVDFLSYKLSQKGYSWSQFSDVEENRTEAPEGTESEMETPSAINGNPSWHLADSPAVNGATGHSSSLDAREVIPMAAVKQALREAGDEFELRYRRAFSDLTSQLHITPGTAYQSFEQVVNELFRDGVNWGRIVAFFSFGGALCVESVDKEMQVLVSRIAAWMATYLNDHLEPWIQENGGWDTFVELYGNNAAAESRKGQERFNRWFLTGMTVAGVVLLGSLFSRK
pKi: −log10 of the molar value.
recorded_endpoint: pKi

Problem: Annotate the molecule O=C(O)C1C2CC(Sc3ccccc3[N+](=O)[O-])C(Cl)C2c2cc(Cl)cc3c2N1CC1CC=CC31 (stereo unspecified) with its measured pKi.
Solution: ≤ 4.30

###

Molecular target: BCL2L2/BID (Homo sapiens, UniProt P55957+Q92843)
Sequence (Q92843 whole entry, one chain of several): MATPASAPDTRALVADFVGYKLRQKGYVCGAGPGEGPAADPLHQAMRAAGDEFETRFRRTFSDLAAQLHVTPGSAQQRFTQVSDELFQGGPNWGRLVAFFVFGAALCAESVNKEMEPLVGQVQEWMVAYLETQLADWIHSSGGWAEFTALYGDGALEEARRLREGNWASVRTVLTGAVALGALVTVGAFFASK
Assay: Inhibition of Bcl-W/Bid (unknown origin)
recorded_endpoint: IC50 (nM)
Write the value in nM as a bare number.

Problem: State, in one line, measured IC50 of O=C(O[C@@H]1Cc2c(O)cc(O)cc2O[C@@H]1c1cc(O)c(O)c(O)c1)c1cc(O)c(O)c(O)c1 [EPIGALOCATECHIN GALLATE]
Solution: 2330

###

System: MCF7
Experiment: Induction of apoptosis in Bcl-2 dependent human MCF7 cells treated for 48 hrs by Annexin V-FITC staining based flow cytometric analysis
Type: functional, cell-based
Settings: MCF7, 48 h
recorded_endpoint: IC50 (µM)
Quick reminder: number only, in µM, skip the unit.

Problem: Name the value of IC50 reported for O=C(O)c1cc2ccccc2n1S(=O)(=O)c1ccc(OCc2cccc(Cl)c2)cc1 when tested on MCF7.
Solution: 19.2

###

Examples of molecules with documented Ki follow.
Biological target: BCL2L2/BID (Homo sapiens, UniProt P55957+Q92843)
Experiment: Binding affinity to Bcl-W/Bid (unknown origin) by fluorescence polarization assay
I only need the number, in µM, no unit after it.

chemical_smiles	reading
O=C(O)CSc1cc(NS(=O)(=O)c2cccc(Br)c2)c2ccccc2c1O	8.19

Lab note: next molecule to report on.
Problem: // Input: O=C(O)CSc1cc(NS(=O)(=O)c2cccs2)c2ccccc2c1O . Output its Ki only.
Solution: 37.5

###

Biological target: Induced myeloid leukemia cell differentiation protein Mcl-1/BH3-interacting domain death agonist (Homo sapiens, UniProt Q07820)
Sequence (Q07820 whole entry, the tested form may be a part): as the sequence (Q07820 whole entry) above
Sequence (P55957 whole entry, further chain, the tested form may be a part): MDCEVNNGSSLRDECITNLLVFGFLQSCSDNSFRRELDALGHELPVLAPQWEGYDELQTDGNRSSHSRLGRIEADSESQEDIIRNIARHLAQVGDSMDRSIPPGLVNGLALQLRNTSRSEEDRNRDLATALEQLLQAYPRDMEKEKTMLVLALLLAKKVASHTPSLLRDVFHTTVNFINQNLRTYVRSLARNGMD
Test: Inhibition of Mcl-1/FITC-labelled Bid (unknown origin) protein protein interaction incubated for 20 to 60 mins by fluorescence polarisation binding assay
recorded_endpoint: pIC50
By convention, pIC50 is the negative base-10 log of a molar concentration.

Problem: Give the reported value of pIC50 for this record: Cc1ccc(S(=O)(=O)/N=C2\C=C(Sc3nc[nH]n3)C(=O)c3ccccc32)cc1
Solution: 6.35

###

Target: Induced myeloid leukemia cell differentiation protein Mcl-1/BH3-interacting domain death agonist (Homo sapiens, UniProt Q07820)
Experiment: Binding affinity to Mcl-1/Bid (unknown origin) by fluorescence polarization assay
Type: protein assay
Attribute: Ki
Express the result in µM but write the number alone.

Problem: Please look at this compound and report its Ki: O=C(Cn1nnc(-c2ccccc2Oc2ccc(Cl)cc2Cl)n1)NNC(=S)Nc1ccc([N+](=O)[O-])cc1
Solution: 2.2

Problem: Answer with the recorded Ki for the compound listed here: O=C(Cn1nnnc1-c1ccccc1Oc1ccc(Cl)cc1Cl)NNC(=S)Nc1ccc([N+](=O)[O-])cc1
Solution: 2

Problem: Supply measured Ki of O=C(NCCNS(=O)(=O)c1sccc1-c1ccccc1Oc1ccc(O)c(O)c1)Nc1cc(C(F)(F)F)cc(C(F)(F)F)c1 in your reply.
Solution: 0.33

###

Biological target: Bcl-xL/BAK (Homo sapiens, UniProt Q07817)
Sequence (Q16611 whole entry, one chain of several, further chain): as the sequence (Q16611 whole entry, one chain of several, further chain) above
recorded_endpoint: Kd

Problem: Look up and report Kd, with Bcl-xL/BAK (Homo sapiens, UniProt Q07817) as system, for COc1ccc(-c2ccc(/C=C3\SC(=S)N([C@@H](Cc4ccccc4)C(=O)O)C3=O)cn2)cc1OC
Solution: > 750 µM

Reference source for all entries: ChEMBL document CHEMBL5113375
